Entries and their cytotoxicity at 70.5 h
Assay: Human HepG2 cell viability assay in 384 well format
Format: toxicity, cell-based
Set-up: dose 125 nL, time 70.5 hour; concentration not given beside the values
Conditions: HepG2 cells, read-out: Inhibition
Entry rule: numbers only, all in %.

molecule=CN(Cc1ccco1)c1ccc(-c2nccn2C)nn1 unitannotation=% testvalue=9.03
molecule=CCCOc1cc(C)c2c(c1C)C[C@H]([C@H](C)C(=O)O)CC2 unitannotation=% testvalue=-3.42
molecule="CC(=O)N1CCCC1c1cc(N2CCN(C3CCCC3)CC2)cc(C)n1 (stereo not drawn)" unitannotation=% testvalue=-7.01
molecule="Cc1cc(CN(C)C(=O)C(c2ccccc2C)N(C)C)on1 (stereo not drawn)" unitannotation=% testvalue=-6.35
molecule="COCCN1CCC(CNC(=O)Nc2ccc(SC(F)(F)F)cc2)C1 (stereo not drawn)" unitannotation=% testvalue=-1.27
molecule=O=C(c1n[nH]c2c1CCN(Cc1nccs1)C2)N1CCOCC1 unitannotation=% testvalue=4.7
molecule=CN1C[C@@H](C(=O)N(C)C)[C@@]2(CCc3ccccc3C(=O)N2)C1 unitannotation=% testvalue=0.772
molecule="CS(=O)(=O)N1CCC(c2nnc3ccc(C(=O)NC4CCC4)cn23)C1 (stereo not drawn)" unitannotation=% testvalue=12.6

What value of measured cytotoxicity at 70.5 h is listed for `CC(C)(C)c1nc(CNC2CCN(S(C)(=O)=O)CC2)cs1` ?
-8.36

# cytotoxicity at 70.5 h lookup, item CC(O)CN1CCC(CNCCOCC(F)(F)F)CC1 (stereo not drawn)
-7.95

// query cytotoxicity at 70.5 h value for entry `COc1cccc(CN2CCC3(CCN(c4ncc(C)cn4)CC3)C2)c1`
1.49

Fill blank: measured cytotoxicity at 70.5 h of the molecule Cc1ccccc1CC(C)NCc1c(C)nn(C)c1N1CCOCC1 (stereo not drawn) is ____.
-0.684

* * *

Assay: Human HepG2 cell viability assay in 384 well format
Format: toxicity, cell-based
Parameters: dose 125 nL, time 70.5 hour; concentration not given beside the values
Conditions: HepG2 cells, read-out: Inhibition
Reported cytotoxicity at 70.5 h values for the following compounds.
// units = %; emit number, no label

compound="CC(NC(=O)Nc1ccncc1)c1ccc2c(c1)CC(=O)N2 (configuration not stated)" unitannotation=% testvalue=-7.01
compound="CC(c1ccccc1)N1Cc2nc(N(C)C)ncc2C1=O (configuration not stated)" unitannotation=% testvalue=49

I am curious: what cytotoxicity at 70.5 h value has been reported for `COC(=O)C(C)(C)NC(=O)c1cnc(C(C)(C)C)s1` ?
-1.58

Which value of cytotoxicity at 70.5 h has been reported for CC(=O)NC1CCCN(C(=O)c2ccc(Br)cc2O)C1 (configuration not stated) in the records?
-8.57

Need cytotoxicity at 70.5 h, item `N#Cc1c(N2CCCCC2)nsc1-c1cccnc1`
25

Sample CN1C(=O)CCCC12CCCN(C(=O)c1ccc3c(c1)OCO3)C2 (configuration not stated) — what was its cytotoxicity at 70.5 h?
-15.9

Find the recorded cytotoxicity at 70.5 h belonging to `OC1CN(c2nc3c(C(F)(F)F)cccc3s2)C1` and report it.
12.2

Query (compound): `O=C(Cn1cccn1)Nc1ccc(N2CCCCC2)cc1` ; field requested: cytotoxicity at 70.5 h
31.5

Dear colleague, I am looking for the recorded cytotoxicity at 70.5 h of the following compound: `Cc1ccsc1CNC(=O)N(C)Cc1cnn(C)c1`
-12.7
